Origin of the recorded values: PubChem BioAssay (NCI)

System: HCT-15 colon
assay_name: NCI-60 one-dose screen, 48 h (100 = growth as untreated, 0 = no growth, -100 = all killed)
study_conditions: 10 µM unless noted
The panel holds about 83,000 compounds, 20% with a hit somewhere; the sample as a whole holds those more often.
Mark each entry criterion met if its growth sits below 90%, and criterion not met for all others.

| compound | group |
| --- | --- |
| O=C(Nc1ccc(S(=O)(=O)NC2CCCCCC2)cc1)C(c1ccccc1)S(=O)(=O)c1ccc(F)cc1 (configuration not stated) | criterion met |
| O=C(CSC(=S)N1CCCCC1)Nc1ccccc1 | criterion not met |
| COC(=O)/C=C1\SC(=Nc2cccc(OC)c2)N(CCc2c[nH]c3ccccc23)C1=O | criterion met |
| C=C(C)[C@@H]1CC[C@]2(C(=O)O)CC[C@]3(C)[C@H](CC[C@@H]4[C@@]5(C)C[C@@H](CC#Cc6ccccc6C)C(=O)C(C)(C)[C@@H]5CC[C@]43C)[C@@H]12 | criterion met |
| COc1ccc2nc(-c3ccc(OC)c(OC)c3)cc(-c3nnc(SCC(=O)Nc4ccc(C(C)=O)cc4)o3)c2c1 | criterion not met |
| O=C(CN1N=C(c2ccc(F)cc2)CCC1=O)Nc1nc2ccccc2s1 | criterion met |
| COC(=O)c1ccc2c(c1)n(Cc1ccc3ccccc3c1)c[n+]2Cc1ccc2ccccc2c1 | criterion not met |
| C#C[C@@]1(O)[C@@H](CO)O[C@@H](n2cc(Cl)c3c(N)ccnc32)[C@@H]1O | criterion met |
| COc1ccc(-c2cc(-c3nnc(SCC(=O)Nc4ccc(C(C)=O)cc4)o3)c3ccccc3n2)cc1 | criterion met |
| Cc1ccc2nc3nc4ccc[nH]c4cc3c2c1 | criterion met |
| CCOC(=O)NC(Cc1ccccc1)c1ccccc1 (configuration not stated) | criterion not met |
| COC(=O)/C=C1\SC(=Nc2ccc(F)cc2)N(CCc2c[nH]c3ccccc23)C1=O | criterion not met |
| CO[C@@]12C=C[C@@]34CCC(=O)N3c3ccccc3[C@@H](O1)C4C2 | criterion not met |
| CN1CCN(C(=O)[C@@]2(C)CC[C@]3(C)CC[C@]4(C)C(=CC[C@@H]5[C@@]6(C)CC[C@H](OC(=O)c7cccnc7)C(C)(C)[C@@H]6CC[C@]54C)[C@@H]3C2)CC1 | criterion met |
| Nc1n[nH]c2cccc(C#Cc3cccc(NC(=O)c4cc(N5CCOCC5)cc(C(F)(F)F)c4)c3)c12 | criterion met |
| N#Cc1ccc(C2C3=C(CCCC3=O)OC3=C2C(=O)c2ccccc2C3=O)cc1 (configuration not stated) | criterion met |

* * *

System: MOLT-4 leukemia
assay_name: NCI-60 one-dose screen, 48 h
study_conditions: 10 µM unless noted
About 83,000 compounds went through this panel and 20% of them were active in at least one assay; those are over-represented in the sample as a whole. Calls of active or inactive are those of the source. The calls were made as follows: active = growth percent below 10; inactive = the rest.
Outcome codes: active, inactive

| molecule | group |
| --- | --- |
| CCCCN(CCCC)CC(CN(CC)CC)OC(=O)Nc1ccccc1 (centres undefined) | inactive |
| N#Cc1ccc(C2C3=C(CCCC3=O)OC3=C2C(=O)c2ccccc2C3=O)cc1 (centres undefined) | active |
| N#Cc1ccc(Oc2ccc3ccc(=O)oc3c2)cc1 | inactive |
| CCOC(=O)c1sc(/N=C2\NC(=O)/C(=C/c3ccc(N4CCN(C)CC4)cc3)S2)nc1C | inactive |
| COc1cc(C(=O)Nc2cc(OC)c3ccn(C)c3c2)cc2c1C[C@]1(C)CC[C@@H](O)C(C)(C)[C@H]1O2 | active |
| C[C@H]1[C@H](C)CC[C@]2(C(=O)OCCCC[P+](c3ccccc3)(c3ccccc3)c3ccccc3)CC[C@]3(C)C(=CC[C@@H]4[C@@]5(C)CC[C@H](OC(=O)C(Cl)Cl)C(C)(C)[C@@H]5CC[C@]43C)[C@H]12 | active |
| C[C@H]1[C@H](C)CC[C@]2(C(=O)OCCOCCOCC[P+](c3ccccc3)(c3ccccc3)c3ccccc3)CC[C@]3(C)C(=CC[C@@H]4[C@@]5(C)CC[C@H](OC(=O)C(Cl)Cl)C(C)(C)[C@@H]5CC[C@]43C)[C@H]12 | active |
| CCCn1cc(/C=N\N=C2\C(=O)Nc3ccc(C)cc32)c2ccccc21 | active |
| CC[C@]12C=CCN3CC[C@@]4(c5ccc(OC)cc5N(C)[C@H]4[C@@](O)(C(=O)OC)[C@@H]1OC(=O)CCC(=O)O[C@H]1CC[C@H]4[C@@H]5CC[C@H]6CC(=O)CC[C@]6(C)[C@H]5CC[C@]14C)[C@@H]32 | active |
| Clc1ccc2c(NCCCNC3CCCCC3)ccnc2c1 | active |
| Nc1c(C(=O)Nc2cccc3ccccc23)sc2nc3c(cc12)CCCCC3 | inactive |
| NC(N)=NC(N)=Nc1cc2ccccc2c2ccccc12 | active |
| CC(=O)[C@@H]1CC[C@]2(C(=O)O)CC[C@]3(C)[C@H](CC[C@@H]4[C@@]5(C)Cc6c([nH]c7ccccc67)C(C)(C)[C@@H]5CC[C@]43C)[C@@H]12 | inactive |
| CCCCCCN1C(=O)CN=C1Nc1ccc2cc3ccc(NC4=NCC(=O)N4CCCCCC)cc3nc2c1 | active |
| COC(=O)c1cc2c3c(cc(O)c2[nH]1)N(C(=O)C1Cc2cc(OC)c(OC)c(OC)c2N1)CC3CCl (centres undefined) | active |
| CSc1nc(-c2cccs2)c2c(N)[nH]nc2n1 | inactive |
| Cc1cc(C)n(-c2nc(-c3cccs3)c(C#N)c(=O)[nH]2)n1 | inactive |
| COc1ccc(-n2cc(COc3ccc4c5ccnc(C)c5n(CC(C)C)c4c3)nn2)cc1 | inactive |
| COc1ccccc1C(=O)/C=C/c1cc2cccc(OC)c2[nH]c1=O | active |
| C#C[C@@]1(O)[C@@H](CO)O[C@@H](n2cc(Cl)c3c(N)ncnc32)[C@@H]1O | active |
| COC(=O)[C@]1(C)CCC[C@]2(C)[C@H]3C[C@H]4C(C(C)C)=C[C@]3(CC[C@H]21)[C@@H]1C(=O)N(CCC#N)C(=O)[C@@H]14 | inactive |
| C=CCn1c(CN2CCN(c3cc4c(cc3F)c(=O)c(C(=O)O)cn4C3CC3)CC2)n[nH]c1=S | inactive |
| S=C(Nc1ccccc1)c1ccccn1 | inactive |
| CC(C)CSc1nc(Nc2ccccc2)c(C#N)c(-c2ccc(F)cc2)n1 | inactive |
| COc1cccc(NC(=O)Nc2ccc(Nc3ncnc4[nH]c(C)c(C)c34)cc2)c1 | inactive |
| C=C1C(=O)O[C@H]2[C@H]1CC/C(COC(=O)c1cccnc1N)=C\CC[C@@]1(C)O[C@@H]21 | active |
| CC1=C/C(=N\N=C2/C=C(C)CC(C)(C)C2)CC(C)(C)C1 | inactive |
| O=c1[nH]c2ccccc2cc1-c1nc2ccncc2[nH]1 | inactive |
| CC(=O)Oc1c2c(nc3c1c1ccccc1n3Cc1ccccc1)-c1ccccc1C2 | inactive |
| CO[C@@]12C=C[C@@]34CCC(=O)N3c3ccccc3[C@@H](O1)C4C2 | inactive |
| FC(F)(F)c1ccc2c(Nc3cccc(C4CC(c5ccccc5)=NN4c4ccc(Cl)cc4)c3)ccnc2c1 (centres undefined) | active |
| Cc1c(Cl)cccc1NC(=O)c1sc2nc3c(cc2c1N)CN(Cc1ccccc1)CC3 | inactive |
| C=C1C(=O)O[C@H]2[C@H]1CCC(/C=N/c1ncc(Br)cc1N)=C\CC[C@@]1(C)O[C@@H]21 | active |
| CC(=O)O[C@@H]1C[C@]2(C)[C@H]3[C@H](O)C[C@@H]4C5=CC(C)(C)CC[C@]5(C)CC[C@@]4(C)[C@]3(C)CC[C@H]2C(C)(C)[C@H]1O | inactive |

* * *

System: HOP-62 NSCLC
assay_name: NCI-60 one-dose screen, 48 h (100 = growth as untreated, 0 = no growth, -100 = all killed)
study_conditions: 10 µM unless noted
The panel holds about 83,000 compounds, 20% with a hit somewhere; the sample as a whole holds those more often.

| compound | measured_on | growth / % |
| --- | --- | --- |
| Nc1c(C(=O)Nc2ccccn2)sc2nc3c(cc12)CCCCCC3 | HOP-62 NSCLC | 17.8 |
| O=C(Nc1nc(-c2ccccc2Cl)cs1)c1cc(-c2ccc(Br)cc2)nc2ccccc12 | HOP-62 NSCLC | 52.6 |
| O=c1[nH]c2ccccc2cc1-c1nc2ccc(Cl)cc2[nH]1 | HOP-62 NSCLC | 67.2 |
| CN1CCN(C(=O)[C@@]2(C)CC[C@]3(C)CC[C@]4(C)C(=CC[C@@H]5[C@@]6(C)CC[C@H](OC(=O)c7cccnc7)C(C)(C)[C@@H]6CC[C@]54C)[C@@H]3C2)CC1 | HOP-62 NSCLC | 83.7 |
| O=C1NCc2ccc3c(-c4cccc(Cl)c4)c[nH]c3c21 | HOP-62 NSCLC | 22.7 |
| COc1cc2nc3c(=O)n(CCN(C)C)cnn3c(=O)c2cc1OC | HOP-62 NSCLC | 101 |
| Cc1nc(C)c(C)nc1C | HOP-62 NSCLC | 100 |
| Nc1cccc(C(=O)Nc2ccc3c(O)c(N=Nc4ccc(N=Nc5ccc(S(=O)(=O)O)cc5)cc4)c(S(=O)(=O)O)cc3c2)c1 | HOP-62 NSCLC | 96 |
| CCc1c(C(=O)N[C@@H](C(=O)OCc2ccccc2)C(C)O)[nH]c2ccc(Cl)cc12 (some centres undefined) | HOP-62 NSCLC | 65.8 |
| Cc1nc2sc(C(=O)Nc3cccc(Cl)c3C)c(N)c2cc1C(C)O (centres undefined) | HOP-62 NSCLC | 25.5 |
| O=C1CCC23OC(c4ccccc4N12)C(O)C(O)C3O (centres undefined) | HOP-62 NSCLC | 104 |
| O=C(C[n+]1cccc2cc(Cl)ccc21)c1ccc2c(c1)CCCC2 | HOP-62 NSCLC | 36.2 |
| COc1ccc2[nH]c(=O)c(/C=C/C(=O)c3ccccc3OC)cc2c1 | HOP-62 NSCLC | 8.67 |
| O=C1[C@@H](OS(=O)(=O)CC(F)(F)F)[C@H](c2ccc(F)cn2)N1c1cc2c3ccccc3ccc2c2ccccc12 | HOP-62 NSCLC | 88.6 |
| C=CCn1c(CN2CCN(c3cc4c(cc3F)c(=O)c(C(=O)O)cn4C3CC3)CC2)n[nH]c1=S | HOP-62 NSCLC | 99.8 |
| COc1ccc(-c2cs/c(=N\N=C\c3ccc(O)cc3O)n2/N=C/c2ccc(O)cc2O)cc1 | HOP-62 NSCLC | -38.5 |
| COc1cc2nc3c(=O)n(-c4ccc(C#N)cc4)cnn3c(=O)c2cc1OC | HOP-62 NSCLC | 102 |
| Cc1[nH]c(N=Nc2ccccc2)nc1N=Nc1ccccc1 | HOP-62 NSCLC | 36.5 |
| C#CC[C@@H]1C[C@]2(C)[C@H]3CC[C@@H]4[C@H]5[C@H](C(=C)C)CC[C@]5(C(=O)O)CC[C@@]4(C)[C@]3(C)CC[C@H]2C(C)(C)[C@H]1O | HOP-62 NSCLC | 59 |
